- measuredTarget: DNA gyrase (MG 1655 A2B2) (Escherichia coli, UniProt P0AES4+P0AES6)
- assayComment: biochemical
- Design: species or system E. coli
- measurementSetup: inhibition of supercoiling IC50, [A2B2] 13.2 nM, incubated up to 4 h
*1 amine or outer side, *2 acyl side, *3 side chain or, on linkers, in order; H or OH if unused. Where a SMILES comes first, the peptide text is derived from it. [ ]: non-standard residue; d: D form. X1 = O=C(c1ccc(CN[*:1])[nH]1)[*:2]

{"molecule": "CC(NC(=O)CNC(=O)CNC(=O)c1ccc(CNC(=O)C(C)NC(=O)CNC(=O)C(N)CCC(N)=O)[nH]1)C(=O)O (stereo not shown) [Peptide 1] (H-QGA[X1]GGA-OH; configuration not given here)", "IC50": "< 75 µM"}

----------
- measuredTarget: DNA gyrase (Escherichia coli, UniProt P0AES4+P0AES6)
- Sequence (P0AES4 whole entry, one chain of several): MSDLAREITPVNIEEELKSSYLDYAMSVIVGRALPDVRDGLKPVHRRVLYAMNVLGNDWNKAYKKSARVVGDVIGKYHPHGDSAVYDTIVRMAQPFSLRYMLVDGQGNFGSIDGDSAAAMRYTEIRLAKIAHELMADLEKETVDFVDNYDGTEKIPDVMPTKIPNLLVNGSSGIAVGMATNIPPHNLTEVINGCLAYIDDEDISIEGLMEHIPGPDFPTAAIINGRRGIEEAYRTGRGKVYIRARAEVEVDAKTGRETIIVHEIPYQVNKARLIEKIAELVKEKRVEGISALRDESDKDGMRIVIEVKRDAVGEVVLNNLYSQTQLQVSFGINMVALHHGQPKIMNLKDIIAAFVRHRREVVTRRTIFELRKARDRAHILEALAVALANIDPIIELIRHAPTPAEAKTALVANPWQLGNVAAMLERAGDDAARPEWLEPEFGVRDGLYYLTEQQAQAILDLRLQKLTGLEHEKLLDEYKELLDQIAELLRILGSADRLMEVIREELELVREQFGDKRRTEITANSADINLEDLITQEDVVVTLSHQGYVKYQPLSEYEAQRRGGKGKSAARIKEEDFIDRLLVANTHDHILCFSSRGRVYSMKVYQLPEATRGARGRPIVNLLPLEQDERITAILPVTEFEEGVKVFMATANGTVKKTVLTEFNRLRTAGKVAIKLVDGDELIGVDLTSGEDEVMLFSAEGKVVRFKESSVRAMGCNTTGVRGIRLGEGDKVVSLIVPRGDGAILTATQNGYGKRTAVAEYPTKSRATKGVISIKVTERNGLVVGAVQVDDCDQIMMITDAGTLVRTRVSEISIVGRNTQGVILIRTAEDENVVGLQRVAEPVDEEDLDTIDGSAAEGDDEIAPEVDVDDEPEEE
- assayComment: biochemical
- Parameters: species or system E. coli
pIC50: −log10 of the molar value. *1 amine or outer side, *2 acyl side, *3 side chain or, on linkers, in order; H or OH if unused. Where a SMILES comes first, the peptide text is derived from it. [ ]: non-standard residue; d: D form. GlyΨ(Thz) = O=C(c1csc(CN[*:1])n1)[*:2]; X3 = O=C(c1coc(CN[*:1])n1)[*:2]

{"compound": "C[C@H](NC(=O)CNC(=O)CNC(=O)c1csc(CNC(=O)[C@H](C)NC(=O)CNC(=O)[C@@H](N)CCC(N)=O)n1)C(=O)O [Peptide 5] (H-QGA[GlyΨ(Thz)]GGA-OH)", "pIC50": 4.60}
{"compound": "CC(C)(C)OC(=O)NCc1nc(C(=O)O)cs1 [Peptide 5]", "pIC50": 4.12}
{"compound": "C[C@H](NC(=O)CNC(=O)CNC(=O)c1coc(CNC(=O)[C@H](C)NC(=O)CNC(=O)[C@@H](N)CCC(N)=O)n1)C(=O)O [Peptide 4] (H-QGA[X3]GGA-OH)", "pIC50": 3.40}

----------
- measuredTarget: E. coli Topoisomerase IV (Escherichia coli, UniProt P0AFI2+P20083)
- Sequence (P20083 whole entry): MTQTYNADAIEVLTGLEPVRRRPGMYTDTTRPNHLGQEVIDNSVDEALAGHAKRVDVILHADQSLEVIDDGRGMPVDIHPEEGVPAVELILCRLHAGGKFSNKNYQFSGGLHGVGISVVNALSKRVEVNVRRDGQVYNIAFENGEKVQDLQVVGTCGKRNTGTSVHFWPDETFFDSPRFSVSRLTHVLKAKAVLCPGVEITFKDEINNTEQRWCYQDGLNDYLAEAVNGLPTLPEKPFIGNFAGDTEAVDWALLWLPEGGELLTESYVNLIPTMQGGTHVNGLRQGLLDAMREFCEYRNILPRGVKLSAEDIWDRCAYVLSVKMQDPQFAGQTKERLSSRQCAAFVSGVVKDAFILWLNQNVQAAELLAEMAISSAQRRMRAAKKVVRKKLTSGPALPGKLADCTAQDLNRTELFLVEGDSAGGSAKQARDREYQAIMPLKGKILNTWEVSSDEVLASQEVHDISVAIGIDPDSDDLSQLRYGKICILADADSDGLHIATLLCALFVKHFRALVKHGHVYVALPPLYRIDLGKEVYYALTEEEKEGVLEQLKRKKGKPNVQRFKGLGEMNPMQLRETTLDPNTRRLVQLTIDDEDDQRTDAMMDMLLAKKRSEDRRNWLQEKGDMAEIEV
- Sequence (P0AFI2 whole entry): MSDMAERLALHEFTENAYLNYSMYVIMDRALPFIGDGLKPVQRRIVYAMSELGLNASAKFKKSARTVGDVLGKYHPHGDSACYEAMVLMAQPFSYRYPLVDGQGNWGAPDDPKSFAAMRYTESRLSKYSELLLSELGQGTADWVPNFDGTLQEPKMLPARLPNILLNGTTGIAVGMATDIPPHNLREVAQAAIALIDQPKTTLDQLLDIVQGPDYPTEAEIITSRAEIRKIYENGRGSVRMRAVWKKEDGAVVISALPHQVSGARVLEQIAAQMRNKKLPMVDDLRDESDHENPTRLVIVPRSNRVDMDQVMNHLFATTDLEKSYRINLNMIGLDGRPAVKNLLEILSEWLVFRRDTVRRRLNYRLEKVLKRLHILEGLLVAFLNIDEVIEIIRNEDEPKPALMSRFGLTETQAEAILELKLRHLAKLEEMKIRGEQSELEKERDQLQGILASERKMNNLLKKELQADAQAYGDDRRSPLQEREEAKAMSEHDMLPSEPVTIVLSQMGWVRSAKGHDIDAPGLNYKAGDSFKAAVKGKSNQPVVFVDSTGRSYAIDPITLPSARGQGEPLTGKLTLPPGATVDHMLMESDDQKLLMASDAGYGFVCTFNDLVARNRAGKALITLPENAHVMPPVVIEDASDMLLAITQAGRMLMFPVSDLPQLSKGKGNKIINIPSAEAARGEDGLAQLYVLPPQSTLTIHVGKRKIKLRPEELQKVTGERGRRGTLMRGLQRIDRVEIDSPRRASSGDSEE
- assayComment: biochemical
- Design: purchased John Innes Enterprises (Norwich, UK)
- measurementSetup: read-out: Topo IV, R (relaxation reaction) IC50
pIC50: −log10 of the molar value.

{"molecularString": "CC(C)(C)OC(=O)NCc1nc(C(=O)O)co1", "pIC50": "< 3.52"}

----------
- measuredTarget: E. coli Topoisomerase IV (Escherichia coli, UniProt P0AFI2+P20083)
- assayComment: biochemical
- Format: biochemical
- Set-up: purchased John Innes Enterprises (Norwich, UK)
*1 amine or outer side, *2 acyl side, *3 side chain or, on linkers, in order; H or OH if unused. Where a SMILES comes first, the peptide text is derived from it. [ ]: non-standard residue; d: D form. GlyΨ(Thz) = O=C(c1csc(CN[*:1])n1)[*:2]; X1 = O=C(c1ccc(CN[*:1])[nH]1)[*:2]

{"molecule": "CC(NC(=O)CNC(=O)CNC(=O)c1ccc(CNC(=O)C(C)NC(=O)CNC(=O)C(N)CCC(N)=O)[nH]1)C(=O)O (stereo not shown) [Peptide 1] (H-QGA[X1]GGA-OH; configuration not given here)", "Topo IV, D (decatenation reaction) IC50": "exquisitely sensitive"}
{"molecule": "CC(C)(C)OC(=O)NCc1nc(C(=O)O)cs1", "Topo IV, D (decatenation reaction) IC50": "exquisitely sensitive"}
{"molecule": "CC(NC(=O)CNC(=O)CNC(=O)c1csc(CNC(=O)C(C)NC(=O)CNC(=O)C(N)CCC(N)=O)n1)C(=O)O (stereo not shown) [Peptide 5] (H-QGA[GlyΨ(Thz)]GGA-OH; configuration not given here)", "Topo IV, D (decatenation reaction) IC50": "exquisitely sensitive"}

----------
Reported pIC50 is given for each of the following compounds.
- measuredTarget: DNA gyrase A2B2 (Escherichia coli, UniProt P0AES4+P0AES6)
- assayComment: biochemical
pIC50: −log10 of the molar value. *1 amine or outer side, *2 acyl side, *3 side chain or, on linkers, in order; H or OH if unused. Where a SMILES comes first, the peptide text is derived from it. [ ]: non-standard residue; d: D form. GlyΨ(Thz) = O=C(c1csc(CN[*:1])n1)[*:2]; X1 = O=C(c1ccc(CN[*:1])[nH]1)[*:2]; X2 = O=C(c1c[nH]c(CN[*:1])c1)[*:2]
propertyName: pIC50

{"compound": "C[C@H](NC(=O)CNC(=O)CNC(=O)c1c[nH]c(CNC(=O)[C@H](C)NC(=O)CNC(=O)[C@@H](N)CCC(N)=O)c1)C(=O)O [Peptide 2] (H-QGA[X2]GGA-OH)", "relationOperator": "<", "dataValue": 4.00}
{"compound": "CC(NC(=O)CNC(=O)CNC(=O)c1csc(CNC(=O)C(C)NC(=O)CNC(=O)C(N)CCC(N)=O)n1)C(=O)O (stereo not shown) [Peptide 5] (H-QGA[GlyΨ(Thz)]GGA-OH; configuration not given here)", "relationOperator": "=", "dataValue": 4.82}
{"compound": "C[C@H](NC(=O)CNC(=O)CNC(=O)c1csc(CNC(=O)[C@H](C)NC(=O)CNC(=O)[C@@H](N)CCC(N)=O)n1)C(=O)O [Peptide 5] (H-QGA[GlyΨ(Thz)]GGA-OH)", "relationOperator": "=", "dataValue": 4.40}
{"compound": "CC(NC(=O)CNC(=O)CNC(=O)c1ccc(CNC(=O)C(C)NC(=O)CNC(=O)C(N)CCC(N)=O)[nH]1)C(=O)O (stereo not shown) [Peptide 1] (H-QGA[X1]GGA-OH; configuration not given here)", "relationOperator": "=", "dataValue": 4.17}

----------
- measuredTarget: Human topoisomerase IIα (Homo sapiens, UniProt P11388)
- Sequence (P11388 whole entry): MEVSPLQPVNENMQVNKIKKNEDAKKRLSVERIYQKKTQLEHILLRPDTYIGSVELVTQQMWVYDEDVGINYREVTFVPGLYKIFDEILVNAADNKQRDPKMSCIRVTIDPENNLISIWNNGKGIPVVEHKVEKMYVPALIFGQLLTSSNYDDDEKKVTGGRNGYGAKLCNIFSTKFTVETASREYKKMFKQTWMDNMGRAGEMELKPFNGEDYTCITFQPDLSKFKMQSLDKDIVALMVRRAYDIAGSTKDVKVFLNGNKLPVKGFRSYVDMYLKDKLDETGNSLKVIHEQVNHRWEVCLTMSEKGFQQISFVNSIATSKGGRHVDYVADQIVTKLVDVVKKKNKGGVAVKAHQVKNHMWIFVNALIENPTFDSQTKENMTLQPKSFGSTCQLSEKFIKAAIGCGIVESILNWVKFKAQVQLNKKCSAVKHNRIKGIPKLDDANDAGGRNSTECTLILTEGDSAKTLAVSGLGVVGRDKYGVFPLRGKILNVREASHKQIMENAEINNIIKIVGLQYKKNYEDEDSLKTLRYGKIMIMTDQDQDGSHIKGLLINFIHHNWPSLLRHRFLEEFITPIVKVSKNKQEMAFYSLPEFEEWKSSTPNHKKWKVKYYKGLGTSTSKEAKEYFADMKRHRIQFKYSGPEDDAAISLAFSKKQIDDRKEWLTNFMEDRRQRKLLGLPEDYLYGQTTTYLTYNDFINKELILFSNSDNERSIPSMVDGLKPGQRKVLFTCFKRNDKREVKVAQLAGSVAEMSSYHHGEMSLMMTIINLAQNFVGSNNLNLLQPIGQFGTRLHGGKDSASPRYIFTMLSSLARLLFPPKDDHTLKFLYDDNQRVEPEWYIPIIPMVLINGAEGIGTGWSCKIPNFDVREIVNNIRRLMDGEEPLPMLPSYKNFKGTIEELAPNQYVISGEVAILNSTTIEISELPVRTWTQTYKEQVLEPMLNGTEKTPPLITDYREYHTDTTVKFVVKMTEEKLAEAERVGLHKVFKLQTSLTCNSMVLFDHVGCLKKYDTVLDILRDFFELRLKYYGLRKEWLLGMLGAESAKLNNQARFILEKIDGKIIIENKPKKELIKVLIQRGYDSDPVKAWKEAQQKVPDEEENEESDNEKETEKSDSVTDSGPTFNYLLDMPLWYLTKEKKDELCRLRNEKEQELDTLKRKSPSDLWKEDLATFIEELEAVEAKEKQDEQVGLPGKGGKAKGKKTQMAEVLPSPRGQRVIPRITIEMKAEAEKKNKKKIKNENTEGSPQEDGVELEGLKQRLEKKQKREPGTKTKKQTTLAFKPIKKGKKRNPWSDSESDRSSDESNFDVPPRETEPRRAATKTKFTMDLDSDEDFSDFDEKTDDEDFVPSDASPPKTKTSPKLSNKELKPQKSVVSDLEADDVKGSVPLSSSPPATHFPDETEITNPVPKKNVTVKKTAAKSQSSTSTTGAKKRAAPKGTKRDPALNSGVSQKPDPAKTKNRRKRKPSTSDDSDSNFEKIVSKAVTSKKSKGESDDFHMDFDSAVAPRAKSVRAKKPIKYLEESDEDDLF
- assayComment: Human Topoisomerase IIα-mediated relaxation assay
- Type: biochemical
- Design: purchased TopoGEN Inc. (Port Orange, Fla., USA)
- measurementSetup: Topo IIα Human, R (relaxation reaction) IC50
*1 amine or outer side, *2 acyl side, *3 side chain or, on linkers, in order; H or OH if unused. Where a SMILES comes first, the peptide text is derived from it. [ ]: non-standard residue; d: D form. GlyΨ(Thz) = O=C(c1csc(CN[*:1])n1)[*:2]; X1 = O=C(c1ccc(CN[*:1])[nH]1)[*:2]; X3 = O=C(c1coc(CN[*:1])n1)[*:2]

{"compound": "CC(NC(=O)CNC(=O)CNC(=O)c1ccc(CNC(=O)C(C)NC(=O)CNC(=O)C(N)CCC(N)=O)[nH]1)C(=O)O (stereo not drawn) [Peptide 1] (H-QGA[X1]GGA-OH; configuration not given here)", "relationOperator": "<", "IC50 (µM)": 20}
{"compound": "CC(NC(=O)CNC(=O)CNC(=O)c1csc(CNC(=O)C(C)NC(=O)CNC(=O)C(N)CCC(N)=O)n1)C(=O)O (stereo not drawn) [Peptide 5] (H-QGA[GlyΨ(Thz)]GGA-OH; configuration not given here)", "relationOperator": "<", "IC50 (µM)": 20}
{"compound": "CC(NC(=O)CNC(=O)CNC(=O)c1coc(CNC(=O)C(C)NC(=O)CNC(=O)C(N)CCC(N)=O)n1)C(=O)O (stereo not drawn) [Peptide 4] (H-QGA[X3]GGA-OH; configuration not given here)", "relationOperator": "=", "IC50 (µM)": 225}
{"compound": "C[C@H](NC(=O)CNC(=O)CNC(=O)c1coc(CNC(=O)[C@H](C)NC(=O)CNC(=O)[C@@H](N)CCC(N)=O)n1)C(=O)O [Peptide 4] (H-QGA[X3]GGA-OH)", "relationOperator": "=", "IC50 (µM)": 225}
{"compound": "C[C@H](NC(=O)CNC(=O)CNC(=O)c1csc(CNC(=O)[C@H](C)NC(=O)CNC(=O)[C@@H](N)CCC(N)=O)n1)C(=O)O [Peptide 5] (H-QGA[GlyΨ(Thz)]GGA-OH)", "relationOperator": "=", "IC50 (µM)": 7}
{"compound": "CC(C)(C)OC(=O)NCc1nc(C(=O)O)cs1 [Peptide 5]", "relationOperator": "=", "IC50 (µM)": 15}

----------
- measuredTarget: E. coli Topoisomerase IV (Escherichia coli, UniProt P0AFI2+P20083)
- assayComment: biochemical
- Design: purchased John Innes Enterprises (Norwich, UK)
pIC50: −log10 of the molar value. *1 amine or outer side, *2 acyl side, *3 side chain or, on linkers, in order; H or OH if unused. Where a SMILES comes first, the peptide text is derived from it. [ ]: non-standard residue; d: D form. GlyΨ(Thz) = O=C(c1csc(CN[*:1])n1)[*:2]; X1 = O=C(c1ccc(CN[*:1])[nH]1)[*:2]; X3 = O=C(c1coc(CN[*:1])n1)[*:2]
# pIC50 annotations

{"molecule": "CC(NC(=O)CNC(=O)CNC(=O)c1ccc(CNC(=O)C(C)NC(=O)CNC(=O)C(N)CCC(N)=O)[nH]1)C(=O)O (stereo not shown) [Peptide 1] (H-QGA[X1]GGA-OH; configuration not given here)", "pIC50": "> 5.00"}
{"molecule": "C[C@H](NC(=O)CNC(=O)CNC(=O)c1coc(CNC(=O)[C@H](C)NC(=O)CNC(=O)[C@@H](N)CCC(N)=O)n1)C(=O)O [Peptide 4] (H-QGA[X3]GGA-OH)", "pIC50": "< 3.52"}
{"molecule": "CC(NC(=O)CNC(=O)CNC(=O)c1csc(CNC(=O)C(C)NC(=O)CNC(=O)C(N)CCC(N)=O)n1)C(=O)O (stereo not shown) [Peptide 5] (H-QGA[GlyΨ(Thz)]GGA-OH; configuration not given here)", "pIC50": "> 5.00"}
{"molecule": "CC(C)(C)OC(=O)NCc1nc(C(=O)O)cs1 [Peptide 5]", "pIC50": "< 4.12"}
